# Test system: MDA-MB-435
# measurement_description: NCI tumour cell line growth inhibition, 48 h
Activity calls are given as the source filed them. Cut-off read from the data, not from the text of the source: active = GI50 up to about 1.1 µM and inactive = higher.
Use one of these outcomes when replying: active, inactive

Completed entries (count: 5):
Returns: the outcome recorded for COc1ccc(/C(=N/N=c2[nH]c3ccccc3[nH]2)C(=O)O)cc1 in this assay.
inactive

Returns: the outcome recorded for CCOC(=O)Nc1[nH]cc(-c2ccccc2)c1C#N in this assay.
inactive

Returns: the outcome recorded for CO[C@]12C[C@H](CNC(=O)c3ccc[nH]3)O[C@H]1NC(=O)N2 in this assay.
inactive

Returns: the outcome recorded for O=C1C(Cl)=C(NCCF)C(=O)c2ncccc21 in this assay.
active

Returns: the outcome recorded for CC(C)(C)n1c(=O)n2n(c1=O)C1c3cccc4cccc(c34)C2C2c3cccc4cccc(c34)C1n1c(=O)n(C(C)(C)C)c(=O)n12 in this assay.
inactive

Shift focus to the following entry.
Returns: the outcome recorded for CC(=O)[C@@H]1[C@@H](OC(=O)CCC(C)COC2OC(CO)C(O)C(O)C2O)C[C@H]2[C@@H]3CC=C4C[C@@H](OC5OC(CO)C(OC6OC(C)C(O)C(O)C6O)C(O)C5OC5OC(C)C(O)C(O)C5O)CC[C@]4(C)[C@H]3CC[C@]12C (stereo partly specified) in this assay.
inactive

---

# System: NCI-H460
# measurement_description: NCI tumour cell line growth inhibition, 48 h
Active and inactive are the calls of the source. Cut-off read from the data, not from the text of the source: active = GI50 up to about 1.1 µM and inactive = higher.
assay_readout: GI50

Worked set:
API: value(readout= GI50, system= NCI-H460, query= CCCC(=O)Nc1ncnc2c1ncn2C1OC2COP(=O)(O)OC2C1OC(=O)CCC (centres undefined) )
> 100 µM (inactive)

API: value(readout= GI50, system= NCI-H460, query= CCOC(=O)c1nc2ccccc2nc1Oc1ccc(C#N)cc1 )
> 100 µM (inactive)

API: value(readout= GI50, system= NCI-H460, query= c1ccc(CSc2nc(N3CCCCC3)c3cn[nH]c3n2)cc1 )
22.8 µM (inactive)

Okay, next one:
API: value(readout= GI50, system= NCI-H460, query= O=c1[nH]c2c(C(F)(F)F)c(Cl)c(-c3ccccc3)nc2o1 )
23.9 µM (inactive)

---

# Test system: MDA-MB-435
# measurement_description: NCI tumour cell line growth inhibition, 48 h
The source made the active and inactive calls. No stated cut-off is given here; in the data, active = GI50 up to about 1.1 µM and inactive = higher.
Use one of these outcomes when replying: active, inactive

Returns: the outcome recorded for Cc1cc(CCC(=O)NCCNc2c3ccccc3nc3ccccc23)cc(C)c1O[Si](C)(C)C(C)(C)C in this assay.
active

Returns: the outcome recorded for O=C(/C=C1\N=C(c2ccccc2)N(c2nc3ccc(Sc4ccccc4)cc3[nH]2)C1=O)/C=C/c1ccccc1 in this assay.
inactive

Returns: the outcome recorded for CC(C)(CN)CN in this assay.
inactive

Returns: the outcome recorded for Oc1cc(CN2COc3ccccc32)c(O)cc1CNC1CCCCC1 in this assay.
inactive

Returns: the outcome recorded for CC(C)NC(=O)OCc1c(COC(=O)NC(C)C)c(-c2ccc[n+](COC(=O)C3CC3)c2)n2c1CCC2 in this assay.
inactive

Returns: the outcome recorded for COC(=O)C1(C)C=CC(=O)C2(C)C1C(O)C1OC3CC(c4ccoc4)C(C)=C3C1(C)C2CC(=O)O (centres undefined) in this assay.
inactive

***
Returns: the outcome recorded for COc1ccc2c(c1)CC[C@@H]1C2CC[C@]2(C)C(=O)N(CCN(C)C)C(=O)CC12 (some centres undefined) in this assay.
inactive

Returns: the outcome recorded for O=C([O-])C1([n+]2c(-c3ccccc3)cc(-c3ccccc3)cc2-c2ccccc2)CC1 in this assay.
inactive

Returns: the outcome recorded for Cc1ccc(C)n2c1nc1cc3ccccc3cc12 in this assay.
inactive

---

# Tested on: KM-20L2
# measurement_description: NCI tumour cell line growth inhibition, 48 h
Activity calls are given as the source filed them. No stated cut-off is given here; in the data, active = GI50 up to about 1.1 µM and inactive = higher.
Use one of these outcomes when replying: yes for active, no for inactive

Completed entries (count: 5):
Returns: the outcome recorded for S=c1c2ccccc2c(=S)n2n1CC=CC2 in this assay.
no

Returns: the outcome recorded for c1ccc2c3c([nH]c2c1)[C@H]1C2CCCCN2CN1CC3 (stereo partly drawn) in this assay.
no

Returns: the outcome recorded for N=C(N)Nc1ncccc1[N+](=O)[O-] in this assay.
no

Returns: the outcome recorded for CSc1ccc2c(cc1=O)[C@@H](NC(=O)c1cc(O)c(O)c(O)c1)CCc1cc(O)c(O)c(O)c1-2 in this assay.
no

Returns: the outcome recorded for O=[N+]([O-])c1ccc(-c2noc(-c3ccccc3)c2C2=NCCN2)cc1 in this assay.
no

Shift focus to the following entry.
Returns: the outcome recorded for N=C(N)C1=C(O)NC(=O)N(C2CCCCC2)C1 in this assay.
no

---

GI50 reference
# Tested on: NCI-H226
# measurement_description: NCI tumour cell line growth inhibition, 48 h
Calls of active or inactive are those of the source. No stated cut-off is given here; in the data, active = GI50 up to about 1.1 µM and inactive = higher.

Worked set:
For CC1(C)[C@@H]2C[C@H]1c1cnc(-c3ccccn3)cc1[C@H]2C(O)[C@@H]1c2cc(-c3ccccn3)ncc2[C@H]2C[C@@H]1C2(C)C (stereo partly specified) , what is its reported GI50?
< 0.0504 µM (active)

For O=C(O)C1C(C(=O)O)C2C(=O)C=CC1N2Cc1ccccc1 (stereo unspecified) , what is its reported GI50?
16 µM (inactive)

For CC(O)c1nc(C#N)c(N)o1 (stereo unspecified) , what is its reported GI50?
> 100 µM (inactive)

For CCN(CC)CCNc1ccc2ncn3c4c(OC)ccc(OC)c4c(=O)c1c23 , what is its reported GI50?
90.8 µM (inactive)

For CCc1cc2c(c3c1CCCC3=O)CC1(Cc3ccc(C(=O)OC)cc3C1)C2 (stereo unspecified) , what is its reported GI50?
> 100 µM (inactive)

For COC(=O)C(C(=O)C(=O)Nc1ccccc1C)c1nc2ccc([N+](=O)[O-])cc2nc1O (stereo unspecified) , what is its reported GI50?
> 100 µM (inactive)

***
For CC1=NN(C(=O)c2ccc(Cl)cc2)C(=O)/C1=C/c1cccc(O)c1 , what is its reported GI50?
> 100 µM (inactive)

For Cc1oc2c(C)c3oc(=O)cc(C)c3cc2c1CNC(=O)[C@@H]1OCCOCCOCCOCCOCCOC1C(=O)O (stereo partly specified) , what is its reported GI50?
> 100 µM (inactive)

For OCCOCCO[P+]1(OCCOCCO)n2c3ccc2C(c2ccccc2)=C2C=CC(=N2)C(c2ccccc2)=c2ccc(n21)=C(c1ccccc1)C1=NC(=C3c2ccccc2)C=C1 , what is its reported GI50?
0.162 µM (active)

For CC(C)(CN)CN , what is its reported GI50?
> 100 µM (inactive)

For COc1ccc(/N=C2\C(=O)C3=C(OC(C)(C)CC3)c3ccccc32)cc1 , what is its reported GI50?
6.37 µM (inactive)

---

# Tested on: NCI-H522
# measurement_description: NCI tumour cell line growth inhibition, 48 h
The source made the active and inactive calls. Cut-off read from the data, not from the text of the source: active = GI50 up to about 1.1 µM and inactive = higher.
Use one of these outcomes when replying: active, inactive

Completed entries (count: 3):
Returns: the outcome recorded for Cc1ccc2cccc(-c3cccc4ccccc34)c2n1 in this assay.
inactive

Returns: the outcome recorded for O.O=C([O-])c1ccccc1Nc1ccccc1C(=O)[O-].[Zn+2] in this assay.
inactive

Returns: the outcome recorded for CC1(C)C(O)C[C@@H](O)[C@@]2(C)C1CC[C@]1(C)C2C[C@@H](O)[C@@H]2C([C@@]3(C)CC[C@@H](C(C)(C)O)O3)CCC21C (some centres undefined) in this assay.
inactive

Shift focus to the following entry.
Returns: the outcome recorded for COc1ccc(/N=C2\C(=O)C3=C(OC(C)(C)CC3)c3ccccc32)cc1 in this assay.
active

---

# System: SF-295
# measurement_description: NCI tumour cell line growth inhibition, 48 h
Active and inactive are the calls of the source. No stated cut-off is given here; in the data, active = GI50 up to about 1.1 µM and inactive = higher.
Use one of these outcomes when replying: active, inactive

Completed entries (count: 2):
Returns: the outcome recorded for CC(=O)OC1COC(Nn2c(=O)[nH]c3ccccc3c2=O)C(OC(C)=O)C1OC(C)=O (stereo unspecified) in this assay.
inactive

Returns: the outcome recorded for CC1C/C(=C\c2ccc(OC(=O)C(C)(C)C)cc2)C(=O)/C(=C/c2ccc(OC(=O)C(C)(C)C)cc2)C1 (stereo unspecified) in this assay.
inactive

***
Returns: the outcome recorded for COc1cc(/C=N/c2ccccn2)cc(OC)c1OC in this assay.
inactive

Returns: the outcome recorded for Oc1cccnc1CN1CCCCC1 in this assay.
inactive

Returns: the outcome recorded for COc1cc2nc3n(c(=O)c2cc1OC)CCCCC3 in this assay.
inactive

Returns: the outcome recorded for CN(C)CCNC(=O)c1cccc2cc3ccc4ccccc4c3nc12 in this assay.
active

---

# System: COLO 205
# measurement_description: NCI tumour cell line growth inhibition, 48 h
Active and inactive are the calls of the source. No stated cut-off is given here; in the data, active = GI50 up to about 1.1 µM and inactive = higher.
GI50 reference

For COc1ccccc1NC(=O)CC(=O)N1N=C(C)C(/N=N/c2ccc(C(=O)O)cc2)C1=O (stereo not drawn) , what is its reported GI50?
> 100 µM (inactive)

For Cc1ccc(/C=N/NS(=O)(=O)c2ccccc2)cc1 , what is its reported GI50?
> 100 µM (inactive)

Okay, next one:
For COC1(C)C(=O)N2C1N(C(=O)OCc1ccccc1)CC2(C)C (stereo not drawn) , what is its reported GI50?
> 100 µM (inactive)

Recorded values, source ChEMBL document CHEMBL1201862.
